# TARGET_OR_TEST_SYSTEM: Phosphatidylinositol 4,5-bisphosphate 3-kinase catalytic subunit delta isoform (Homo sapiens)
# Sequence (O00329 whole entry, canonical isoform): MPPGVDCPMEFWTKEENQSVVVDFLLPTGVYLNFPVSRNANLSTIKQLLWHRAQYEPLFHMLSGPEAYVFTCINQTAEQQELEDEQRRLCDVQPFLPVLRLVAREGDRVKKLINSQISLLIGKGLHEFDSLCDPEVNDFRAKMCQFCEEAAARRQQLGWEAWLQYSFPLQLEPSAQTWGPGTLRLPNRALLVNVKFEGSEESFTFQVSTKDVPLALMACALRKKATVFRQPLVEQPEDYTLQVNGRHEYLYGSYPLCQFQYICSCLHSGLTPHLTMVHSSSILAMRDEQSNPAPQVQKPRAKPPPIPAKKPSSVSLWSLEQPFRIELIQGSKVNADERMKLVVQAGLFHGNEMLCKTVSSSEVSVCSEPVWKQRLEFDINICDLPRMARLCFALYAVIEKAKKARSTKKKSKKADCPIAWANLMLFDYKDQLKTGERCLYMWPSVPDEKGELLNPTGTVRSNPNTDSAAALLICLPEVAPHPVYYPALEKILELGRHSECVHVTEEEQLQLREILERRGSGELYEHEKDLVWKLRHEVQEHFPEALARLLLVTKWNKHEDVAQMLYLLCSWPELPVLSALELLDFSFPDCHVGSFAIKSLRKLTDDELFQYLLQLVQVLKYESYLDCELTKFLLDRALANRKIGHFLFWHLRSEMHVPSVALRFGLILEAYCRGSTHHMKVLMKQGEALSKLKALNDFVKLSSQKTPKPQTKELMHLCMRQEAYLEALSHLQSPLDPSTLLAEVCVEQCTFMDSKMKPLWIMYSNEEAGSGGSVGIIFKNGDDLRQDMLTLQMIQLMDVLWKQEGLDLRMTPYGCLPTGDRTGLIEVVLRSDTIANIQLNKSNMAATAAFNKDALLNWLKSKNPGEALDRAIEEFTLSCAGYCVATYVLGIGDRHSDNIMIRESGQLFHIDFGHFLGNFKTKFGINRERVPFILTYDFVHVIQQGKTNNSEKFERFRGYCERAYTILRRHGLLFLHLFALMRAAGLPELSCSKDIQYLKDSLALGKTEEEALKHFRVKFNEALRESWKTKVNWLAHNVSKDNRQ
# PROTOCOL_SUMMARY: Inhibition of human PI3Kdelta-mediated AKT phosphorylation at S473 in Ri-1 cells after 30 mins by electrochemiluminescence assay in presence of human serum albumin and alpha1 acid glycoprotein
# Type: cell-based
pIC50: −log10 of the molar value.
OBSERVATION_TYPE: pIC50

Field: example entries. Status: answers known.
smiles_code=CN(C)C1CCN(Cc2cc3nc(-n4ccc5ccccc54)nc(N4CCOCC4)c3s2)CC1 observation_type=pIC50 observed=6.38
smiles_code=CCc1nc2ccccc2n1-c1nc(N2CCOCC2)c2sc(CN3CCN(C4COC4)CC3(C)C)cc2n1 observation_type=pIC50 observed=6.99
smiles_code=Cc1nc2ccccc2n1-c1nc(N2CCOCC2)c2sc(CN3CCC(N(C)C)CC3)cc2n1 observation_type=pIC50 observed=6.43
smiles_code=Cc1ncc2ccccc2c1-c1nc(N2CCOCC2)c2sc(CN3CCC(N(C)C)CC3)cc2n1 observation_type=pIC50 observed=5.70
smiles_code=Cc1cccc(-c2nc(N3CCOCC3)c3sc(CN4CCC(N(C)C)CC4)cc3n2)c1 observation_type=pIC50 observed=5.89
smiles_code=CN(C)C1CCN(Cc2cc3nc(-c4cccc5c4CC(=O)N5)nc(N4CCOCC4)c3s2)CC1 observation_type=pIC50 observed=5.47

[A] CN(C)C1CCN(Cc2cc3nc(-n4cnc5ccccc54)nc(N4CCOCC4)c3s2)CC1
[B] CN(C)C1CCN(Cc2cc3nc(-n4ncc5ccccc54)nc(N4CCOCC4)c3s2)CC1
[C] CCc1nc2ccccc2n1-c1nc(N2CCOCC2)c2sc(CN3CCN(S(C)(=O)=O)CC3)cc2n1
[D] CN(C)C1CCN(Cc2cc3nc(-c4c(F)ccc5[nH]ccc45)nc(N4CCOCC4)c3s2)CC1
[E] CN(C)C1CCN(Cc2cc3nc(-c4cccc5nccn45)nc(N4CCOCC4)c3s2)CC1
Request: Highest pIC50 first, then in falling order down to the smallest. # answer = labels listed in requested order
Response: D, C, E, A, B
(D: 7.54, C: 7.10, E: 6.74, A: 6.01, B: 5.49)
